assay_system: Fuc(a1-2)Gal(b1-4)[Fuc(a1-3)]GlcNAc(b1-2)Man(a1-3)[Fuc(a1-2)Gal(b1-4)[Fuc(a1-3)]GlcNAc(b1-2)Man(a1-6)]Man(b1-4)GlcNAc(b1-4)GlcNAc
procedure_summary: glycan array binding signal (z-score within array); higher = stronger binding
test_context: glycan notation: IUPAC condensed, linker removed
This excerpt belongs to a sample that is enriched for the strongest signals.
Item-by-item account of glycan array binding signal (z-score)
Output: the number by itself.

Past entries and their recorded results:
Entry Neuropilin-1 (Homo sapiens), O14786 (protein) FKCMEALGMESGEIHSDQITASSQYSTNWSAERSRLNYPENGWTPGEDSYREWIQVDLGLLRFVTAVGTQGAISKETKKKYYVKTYKIDVSSNGEDWITIKEGNKPVLFQGNTNPTDVVVAVFPKPLITRFVRIKPATWETGISMRFEVYGCKITDYPCSGMLGMVSGLISDSQITSSNQGDRNWMPENIRLVTSRSGWALPPAPHSYINEWLQIDLGEEKIVRGIIIQGGKHRENKVFMRKFKIGYSNNGSDWKMIMDDSKRKAKSFEGNNNYDTPELRTFPALSTRFIRIYPERATHGGLGLRMELLGCEVE , glycan array binding signal (z-score) reported as 4.73

Entry Gal 2 (Canis lupus) (protein) MSGKFEVMNMDMKLGGTLKIKGKIAGDADGFVINLGQGSDKLNLHFNPRFHESVIVCNSRNWGQEQRDKHMCFSPGSEVKFTVTFENDGFKVKLPDGHQLTFPNRLGHSHLSYLGVQGGLKVSSFKIE , glycan array binding signal (z-score) reported as 0.795

Entry CLEC9a (Mus musculus), Q8BRU4 (protein) MHAEEIYTSLQWDIPTSEASQKCQSPSKCSGAWCVVTMISCVVCMGLLATSIFLGIKFFQVSSLVLEQQERLIQQDTALVNLTQWQRKYTLEYCQALLQRSLHSGSDCSPCPHNWIQNGKSCYYVFERWEMWNISKKSCLKEGASLFQIDSKEEMEFISSIGKLKGGNKYWVGVFQDGISGSWFWEDGSSPLSDLLPAERQRSAGQICGYLKDSTLISDKCDSWKYFICEKKAFGSCI , glycan array binding signal (z-score) reported as 2.21

Entry CTLX (Homo sapiens), Q6UXS0 (protein) SLCPLFWMEFKGHCYRFFPLNKTWAEADLYCSEFSVGRKSAKLASIHSWEENVFVYDLVNSCVPGIPADVWTGLHDHRQEGQFEWTDGSSYDYSYWDGSQPDDGVHADPEEEDCVQIWYRPTSALRSWNDNTCSRKFPFVCKIPSLTIH , glycan array binding signal (z-score) reported as 3.01

Next:
Entry MFG-E8 (Homo sapiens), Q08431 (protein) MPRPRLLAALCGALLCAPSLLVALDICSKNPCHNGGLCEEISQEVRGDVFPSYTCTCLKGYAGNHCETKCVEPLGLENGNIANSQIAASSVRVTFLGLQHWVPELARLNRAGMVNAWTPSSNDDNPWIQVNLLRRMWVTGVVTQGASRLASHEYLKAFKVAYSLNGHEFDFIHDVNKKHKEFVGNWNKNAVHVNLFETPVEAQYVRLYPTSCHTACTLRFELLGCELNGCANPLGLKNNSIPDKQITASSSYKTWGLHLFSWNPSYARLDKQGNFNAWVAGSYGNDQWLQVDLGSSKEVTGIITQGARNFGSVQFVASYKVAYSNDSANWTEYQDPRTGSSKIFPGNWDNHSHKKNLFETPILARYVRILPVAWHNRIALRLELLGC , glycan array binding signal (z-score) reported as 2.88

Entry HPA (Helix pomatia), Q575S3 (protein) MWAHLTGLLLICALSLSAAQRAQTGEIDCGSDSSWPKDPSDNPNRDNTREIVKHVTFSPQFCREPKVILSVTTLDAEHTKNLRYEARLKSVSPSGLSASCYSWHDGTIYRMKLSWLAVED , glycan array binding signal (z-score) reported as -0.221

Data origin: the supplement of paper PMC8728848
